assay details: Permeability across apical to basal side in human Caco-2 cells at 1 uM measured up to 120 min by LC-MS analysis
Type: ADME, cell-based
measurement setup: time <= 120, dose 1 µM, read-out: permeability
outcome measure: Papp A→B at 2 h, 1 µM (×10⁻⁶ cm/s)

{"columns": ["item smiles", "outcome measure", "endpoint value"],
 "data": [
  ["N#CC1(NC(=O)[C@H](CS(=O)(=O)N2CCN(c3ccccn3)CC2)NC(=O)Cc2cccs2)CC1", "Papp A→B at 2 h, 1 µM", 0.4],
  ["N#CC1(NC(=O)[C@H](CS(=O)(=O)N2CCN(c3ccccn3)CC2)Nc2cccnc2)CC1", "Papp A→B at 2 h, 1 µM", 0.33]
]}
